meta.source: PubChem BioAssay (EPA / NIEHS)

- ASSAY_NAME: ATG_MRE_CIS: Attagene CIS-FACTORIAL HepG2 Assay for human Metal Responsive Element (MRE) (AID 2282954)
- MEASUREMENT_CONTEXT: HepG2 MRE cis-reporter transcription, Attagene multiplex; actives raise or lower the signal
Calls of active or inactive are those of the source. The calls were made as follows: active = hit-call score of the fitted dose curve at least 0.9, where 1 is the maximum; inactive = score below 0.9.
Labels: active, inactive

[
  {
    "MOLECULE": "Clc1ccc(C2(Cn3cncn3)CC(Br)CO2)c(Cl)c1 (configuration not stated)",
    "CLASS_ASSIGNMENT": "active"
  },
  {
    "MOLECULE": "O=C(Nc1ccc2[nH]ccc2c1)c1cc2cc(F)ccc2n1Cc1cccc(F)c1",
    "CLASS_ASSIGNMENT": "active"
  },
  {
    "MOLECULE": "ClC(Cl)=C(Cl)C(Cl)=C(Cl)Cl",
    "CLASS_ASSIGNMENT": "active"
  },
  {
    "MOLECULE": "CC(C)c1ccc(CO)cc1",
    "CLASS_ASSIGNMENT": "inactive"
  },
  {
    "MOLECULE": "COC(=O)Cc1ccccc1",
    "CLASS_ASSIGNMENT": "inactive"
  },
  {
    "MOLECULE": "CCCCCCCCSC(=O)Oc1cc(Cl)nnc1-c1ccccc1",
    "CLASS_ASSIGNMENT": "inactive"
  },
  {
    "MOLECULE": "CCCCCCCCCl",
    "CLASS_ASSIGNMENT": "inactive"
  }
]
